test system: Wnt5a (protein binding on small-molecule microarray); assay: Wnt5a binders on small-molecule microarray, primary screen, biophysical, 635/667 nm fluorescence (AID 1142); conditions: 635 nm fluorescence, higher = more signal;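 further: fluorescence read at 667 nm with signal to noise per printed feature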
Overview of recorded composite z-score for various compounds
Respond using a number only.

{"compound": "C=CC[C@]1(C(=O)NCC(O)CO)N=C(c2ccc(OCCCO)cc2)O[C@H]1c1ccccc1 (stereo partly drawn)", "composite z-score": 0.621}
{"compound": "Cc1cc(C)c(C(O)C2C=CC3C(=O)N(C)C(=O)C3N2N2CCCCC2)c(C)c1 (stereo not drawn)", "composite z-score": 0.423}
{"compound": "O=C1OCCC=C[C@H]2OC34C=CCN(Cc5ccccc5)C(=O)[C@H]3N(CCO)C(=O)[C@@H]4C12 (stereo partly drawn)", "composite z-score": -0.17}
{"compound": "CO[C@H]1COC(=O)[C@@H](Cc2ccccc2)NC(=O)[C@@H](C)COC(=O)CC=C[C@@H]1C", "composite z-score": -0.0866}

q: Record request: composite z-score value, item [N-]=[N+]=NCc1ccccc1C[C@]1(C(N)=O)N=C(c2ccc(OCCCO)cc2)O[C@H]1c1ccccc1CN=[N+]=[N-]
a: 0.447

q: Quick one: composite z-score for C=CCNC(=O)[C@@H]1[C@H]2C(=O)O[C@H](c3ccccc3)[C@H](c3ccccc3)N2[C@H](c2ccc(OCCO)cc2)[C@@]12C(=O)N(C(=O)OCCOC)c1ccc(C#CC3(O)CCCCCC3)cc12 ?
a: 0.281

----------
target: Fibroblast growth factor 2 (Homo sapiens) (UniProt P09038); assay: FGF2 binders on small-molecule microarrays, primary screen, biochemical, small-molecule microarray, 635/667 nm fluorescence (AID 1133); conditions: small-molecule microarray binding, FGF2, fluorescence 635/667; higher = more signal
Sequence (P09038 whole entry, looked up): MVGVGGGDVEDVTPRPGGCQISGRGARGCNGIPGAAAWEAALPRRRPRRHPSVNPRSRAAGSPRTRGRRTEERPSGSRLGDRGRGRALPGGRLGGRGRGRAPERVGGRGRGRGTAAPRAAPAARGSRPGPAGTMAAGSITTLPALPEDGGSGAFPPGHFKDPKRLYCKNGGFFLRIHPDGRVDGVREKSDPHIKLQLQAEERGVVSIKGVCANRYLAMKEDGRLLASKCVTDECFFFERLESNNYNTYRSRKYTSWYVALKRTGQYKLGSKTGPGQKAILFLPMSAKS
Tag: MET if measured composite z-score is not below 0.7, NOT MET if it is.

Worked examples, 6 molecules total:
{"molecule": "CO[C@H]1COC(=O)CC=C[C@H](C)[C@@H](OC)COC(=O)CC=C[C@@H]1C", "target_or_test_system": "Fibroblast growth factor 2 (Homo sapiens) (UniProt P09038)", "class_name": "MET"}
{"molecule": "Cc1ccc(S[C@]2(C(=O)NC(C)C)CC(=O)N(Cc3cc(C(F)(F)F)cc(C(F)(F)F)c3)[C@@H]2c2ccc(CO)cc2I)cc1", "target_or_test_system": "Fibroblast growth factor 2 (Homo sapiens) (UniProt P09038)", "class_name": "NOT MET"}
{"molecule": "COCCOC(=O)N1C(=O)[C@@]2(c3cc(C#CCNC(N)=O)ccc31)[C@H](C(=O)N1CCCCCCC1)[C@H]1C(=O)O[C@H](c3ccccc3)[C@H](c3ccccc3)N1[C@@H]2c1ccccc1OCCO", "target_or_test_system": "Fibroblast growth factor 2 (Homo sapiens) (UniProt P09038)", "class_name": "NOT MET"}
{"molecule": "CO[C@H]1COC(=O)CC=C[C@@H](C)COC(=O)[C@@H](C)NC(=O)CC=C[C@@H]1C", "target_or_test_system": "Fibroblast growth factor 2 (Homo sapiens) (UniProt P09038)", "class_name": "MET"}
{"molecule": "CCC(=O)[C@]12O[C@@]3([C@@H]4C(=O)OCC[C@@H]41)N(CC)C(C)=C(C(=O)OC)[C@@H](c1ccccc1)N3C2=O", "target_or_test_system": "Fibroblast growth factor 2 (Homo sapiens) (UniProt P09038)", "class_name": "NOT MET"}
{"molecule": "COCCOC(=O)N1C(=O)[C@@]2(c3cc(C#CC4=CCCCC4)ccc31)[C@H](C(=O)NC[C@H](O)c1ccccc1)[C@H]1C(=O)O[C@H](c3ccccc3)[C@H](c3ccccc3)N1[C@@H]2c1ccc(OCCO)cc1", "target_or_test_system": "Fibroblast growth factor 2 (Homo sapiens) (UniProt P09038)", "class_name": "MET"}

q: Would you say O=C1NC(=O)C2C1C=CC(C(O)C=Cc1ccc([N+](=O)[O-])cc1)N2Nc1ccccn1 (configuration not stated) shows composite z-score at minimum 0.7?
a: MET

q: Determine whether measured composite z-score meets or exceeds 0.7 for COCCOC(=O)N1C(=O)[C@@]2(c3cc(C#CCNC(N)=O)ccc31)[C@H](c1ccc(OCCO)cc1)N1[C@H](c3ccccc3)[C@H](c3ccccc3)OC(=O)[C@H]1[C@@H]2C(=O)N1CCCCCCC1
a: NOT MET
